target: h P2X2/3 (Homo sapiens, UniProt P56373+Q9UBL9); test: In vitro electrophysiology assay for P2X2/3 (same protocol, 10 μM ATP as agonist); details: Table 7, range of activity
Sequence (P56373 whole entry): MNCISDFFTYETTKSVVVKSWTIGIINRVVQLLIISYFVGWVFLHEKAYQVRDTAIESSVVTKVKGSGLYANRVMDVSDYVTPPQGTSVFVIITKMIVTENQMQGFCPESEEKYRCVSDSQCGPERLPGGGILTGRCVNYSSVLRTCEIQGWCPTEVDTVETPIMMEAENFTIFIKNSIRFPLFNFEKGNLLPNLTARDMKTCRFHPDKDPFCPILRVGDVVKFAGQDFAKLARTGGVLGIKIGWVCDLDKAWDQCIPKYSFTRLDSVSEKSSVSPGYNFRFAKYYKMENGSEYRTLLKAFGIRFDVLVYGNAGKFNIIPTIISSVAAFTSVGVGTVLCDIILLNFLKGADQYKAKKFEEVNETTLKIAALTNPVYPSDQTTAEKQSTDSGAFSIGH
Sequence (Q9UBL9 whole entry): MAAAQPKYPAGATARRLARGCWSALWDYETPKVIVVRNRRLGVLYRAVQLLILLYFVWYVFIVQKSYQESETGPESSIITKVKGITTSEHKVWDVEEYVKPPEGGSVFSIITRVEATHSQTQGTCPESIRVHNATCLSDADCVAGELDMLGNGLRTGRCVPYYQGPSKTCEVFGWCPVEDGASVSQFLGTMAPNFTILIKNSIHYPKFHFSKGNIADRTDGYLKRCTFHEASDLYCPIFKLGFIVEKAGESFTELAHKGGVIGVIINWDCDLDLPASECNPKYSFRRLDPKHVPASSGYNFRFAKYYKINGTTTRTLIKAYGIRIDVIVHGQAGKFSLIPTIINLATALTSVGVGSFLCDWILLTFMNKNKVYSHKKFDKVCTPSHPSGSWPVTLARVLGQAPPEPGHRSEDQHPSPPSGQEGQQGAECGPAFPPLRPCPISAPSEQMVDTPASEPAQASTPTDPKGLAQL
test_readout: IC50

Consider the reported IC50 for these molecules:
COc1cc(-c2ccc(C)cn2)cc2c(NCc3nc(C)no3)ncnc12 [Example 142] :: 3.16 to 31.6 µM
COc1cc(-n2cc(C)cn2)cc2c(N[C@H](C)c3ccc(C)nn3)ncnc12 [Example 99] :: 0.316 to 3.16 µM
COc1cc(-c2ccc(F)cn2)cc2c(NCc3cnc(C(F)(F)F)nc3)ncnc12 [Example 146] :: 3.16 to 31.6 µM
COc1cc(-c2ccc(F)cn2)cc2c(NC(C)c3nc(C)no3)ncnc12 (centres unmarked) [Example 2] :: 3.16 to 31.6 µM
COc1cc(-c2ncc(C)cn2)cc2c(NC(C)c3ccc(C(F)(F)F)nn3)ncnc12 (single isomer, unassigned) [Example 121] :: 0.316 to 3.16 µM

Look up IC50 with h P2X2/3 (Homo sapiens, UniProt P56373+Q9UBL9) for this molecule: COc1cc(-c2ncc(C)s2)cc2c(NCc3ccc(Cl)cn3)ncnc12 [Example 117]
0.316 to 3.16 µM

Another molecule to look at: COc1cc(-c2ccc(F)cn2)cc2c(NC(C)c3nnc(C)s3)ncnc12 (single isomer, unassigned) [Example 173]
3.16 to 31.6 µM

Another molecule to look at: COc1cc(-c2ccc(F)cc2)cc2c(NC(C)c3cccc(=O)[nH]3)ncnc12 (single isomer, unassigned) [Example 190]
3.16 to 31.6 µM
